The reported numbers originate from the supplement of paper PMC10567573.

B1: RHOBTB2 (parent)
chain: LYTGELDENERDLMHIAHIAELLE

# Variants of: B1
# TEST DETAILS: protein stability index of a GFP-peptide fusion (GPS, HEK-293T) (PSI 1-6); higher = more stable;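 also: lentivirally expressed fusions sorted by FACS into six bins by GFP to DsRed ratio, PSI derived from sequencing read proportions per bin multiplied by bin number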
# ASSAY CONDITIONS: c terminus: a fixed tail appended
Reported protein stability index is given for each of the following variants.
Enter a number only.

Known results for variants:
G4T; 2.25
E24R; 2.11
E8H; 2.39
G4A; 2.31
E24Q; 2.38

// lookup protein stability index for "L6A" 3.38

Would you kindly share the measured protein stability index for "E5W" ? 2.3

Tell me the measured protein stability index of "I16L" , please. 2.09

I have this variant here, "R11V" , and I need its recorded protein stability index. 2.04

protein stability index for "E10W" ? 2.41

Requested field: protein stability index. Item: "D12L" 3.07

Requested read-out: protein stability index. Entry: "H18G" 3.76

Look up protein stability index for this variant: "D12C" 2.53

Quick one: protein stability index of "H18V" ? 2.05

// lookup protein stability index for "E24I" 2

So what's the measured protein stability index for this one? "R11Q" 1.96

I'd like to know its protein stability index. The variant in question is "E24W" 1.91

So what's the measured protein stability index for this one? "E5Q" 2.22

Field request: protein stability index | item: "N9M" 1.86

Would you mind telling me what protein stability index value was observed for "E10H" ? 2.05

What value of protein stability index has been recorded for this entry: "E21C" 2.37

# get_value(readout='protein stability index', item= "R11W" ) 2.04
